Target: T1, S. pombe RNA triphosphatase Pct1 (wild type) (S. pombe, UniProt Q9P6Q6 1-303)
T1 sequence (looked up): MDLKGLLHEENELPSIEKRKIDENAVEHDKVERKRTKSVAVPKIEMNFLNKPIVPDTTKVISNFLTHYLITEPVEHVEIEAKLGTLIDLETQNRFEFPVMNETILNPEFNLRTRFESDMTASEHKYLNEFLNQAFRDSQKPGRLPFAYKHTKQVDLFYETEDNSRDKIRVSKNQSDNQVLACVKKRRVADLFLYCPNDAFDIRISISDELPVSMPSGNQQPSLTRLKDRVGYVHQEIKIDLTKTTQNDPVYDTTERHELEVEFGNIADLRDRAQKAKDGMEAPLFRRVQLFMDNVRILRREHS
Experiment: fluorescence polarisation
Where no end group is shown, it is not given here. fluorescein = fluorescein label
ENDPOINT: Kd (µM)
Just the number please, in µM, no unit attached.

I would be grateful if you could share the reported Kd for fluorescein-SGSKTPAWNSGSKTPAWNSGSK [fluorescein-labeled 22-amino acid synthetic Spt5 CTD peptide SGSKTPAWNSGSKTPAWNSGSK] . 124
